- System: HT-29
- run description: NCI tumour cell line growth inhibition, 48 h
Activity calls are given as the source filed them. Cut-off read from the data, not from the text of the source: active = GI50 up to about 1.1 µM and inactive = higher.
observed property: GI50

Reported GI50 ( CC1(c2cccc3ccccc23)OC(=O)c2ccccc21 (stereo unspecified) ) = 20.7 µM (inactive)

For this compound ( Cc1ccc(S(=O)(=O)OC2C(O)C(O)OC2C(c2cc(O)c3c(c2O)C(=O)c2ccccc2C3=O)c2cc(O)c3c(c2O)C(=O)c2ccccc2C3=O)cc1 (stereo unspecified) ), measured GI50 is 5.24 µM (inactive)

Sample COc1ccc(C(C)NNC(=O)c2cc[n+]([BH2-]C#N)cc2)cc1OC (stereo unspecified) ; GI50 observed: > 100 µM (inactive)

GI50 recorded for this compound, C/C(=N\NC(N)=O)c1sc(-c2nc(C)c(/C(C)=N/NC(N)=O)s2)nc1C , is > 100 µM (inactive)

# GI50 (compound: O=C(NC1(C(=O)NNc2nnc(-c3ccccc3)c(-c3ccccc3)n2)C(c2ccccc2)C(c2ccccc2)=NN1c1ccccc1)c1ccccc1 (stereo unspecified) ) is > 100 µM (inactive)

Recorded result, Cc1c(C(=O)/C=C/c2ccc([N+](=O)[O-])cc2)[n+]([O-])c2ccccc2[n+]1[O-] , GI50: 96.6 µM (inactive)

Lookup result for O=C(CSc1nccc(=O)[nH]1)c1ccccc1 ; measured GI50: > 100 µM (inactive)

Looking up O=C1NC(=S)N(c2cccc3ccccc23)C(=O)/C1=C/c1c[nH]c2ccccc12 , I see its GI50 listed as 2.17 µM (inactive)

The compound listed as O=C(O)/C(=C\c1ccncc1)c1cccc2ccccc12 shows GI50 equal to > 100 µM (inactive)

Short answer for Cc1ncc([N+](=O)[O-])n1CCN(C)C(=O)CCCn1ccnc1[N+](=O)[O-] : GI50 was > 100 µM (inactive)

Reported GI50 ( CNC(=O)N(C)C(=O)c1ccccc1C(=O)N(C)C(=O)NC ) = > 10 µM (inactive)

Record summary for CO/[N+]([O-])=C\C(=O)N/C=C/C(=O)O : reported GI50 = > 10 µM (inactive)

GET /value?item= CC(=O)NC1C(OCc2ccccc2)OC(CO)C(O)C1OCC(=O)N[C@@H](C)C(=O)N[C@H](CCC(=O)NCCCNc1ccc([N+](=O)[O-])c2[nH]c3ccccc3c(=O)c12)C(N)=O (stereo partly specified) &field=GI50 returns 36.8 µM (inactive)

Quick note, GI50 for COc1ccc2c(c1)CC[C@@H]1C2CC[C@]2(C)C(=O)N(N)C(=O)CC12 (stereo partly specified) landed at > 100 µM (inactive)

The value of GI50 measured for the compound CCOc1ccccc1/N=N/C1C(=O)N(C(=O)CC(=O)Nc2ccccc2C)N=C1C (stereo unspecified) turned out to be > 100 µM (inactive)

Kindly note the recorded GI50 for Nc1ccc(C(=O)NN2C(=O)C(Cl)C2c2cc(Br)ccc2O)cc1 (stereo unspecified) , which is 64.6 µM (inactive)

Value of GI50 reported for the compound OCC(O)COCn1cc(Cn2ncc3c(SCc4ccccc4)ncnc32)nn1 (stereo unspecified) is > 100 µM (inactive)

Documented GI50 of O=C(OCCOCBr)c1ccccc1 : > 100 µM (inactive)

// field: GI50; key: Cc1cc2ncn(C3CCCCO3)c2cc1C (stereo unspecified) ; value = > 100 µM (inactive)

Entry O=C(CN1CCOCC1)Nc1nc(-c2ccc(Cl)cc2)cs1 — recorded GI50 = 36.1 µM (inactive)

Quick note, GI50 for Cn1ccc(C(=O)NCCCCCNC(=O)c2ccn(C)c(=O)c2O)c(O)c1=O landed at > 100 µM (inactive)

Input CN(C)/N=N/c1ccc([N+](=O)[O-])cc1C(N)=O . Output GI50: > 100 µM (inactive)

The reported value for [O-][S+](Nc1ccccc1)c1cccc(Cl)c1 (stereo unspecified) in terms of GI50 is > 100 µM (inactive)

GI50 reported for this compound NC1=NCN(C2OC(CO)C(O)C2O)C(=O)N1 (stereo unspecified) : 42.3 µM (inactive)

# GI50 of CCCCCCCCCCCC1=NCCN1 = > 100 µM (inactive)

GI50 for COC(=O)[C@@]1(C)/C(=N/NS(=O)(=O)c2ccc(C)cc2)CCC[C@@H]1C is > 100 µM (inactive)

response.value for C[N+]1(CCC(=O)c2ccccc2)CCC2CCC(C2)C1 (stereo unspecified) (field: GI50) = > 100 µM (inactive)

// CC(C)C(Nc1c2ccccc2[n+](C)c2ccccc12)C(=O)O (stereo unspecified) : GI50 value = > 100 µM (inactive)

// COCCc1c(C)c(C#N)c2n(C)c3ccccc3n2c1=O : GI50 value = > 10 µM (inactive)

Field GI50 (entry COC1(C)/C=N/CC(C)(C)NC(=O)C(C)(OC)/C=N/CC(C)(C)NC1=O (stereo unspecified) ) reads > 10 µM (inactive)

# GI50 (compound: CCOc1c(/N=N/c2ccccc2Cl)c(-c2ccccc2)nn1C(=S)S ) is 25.2 µM (inactive)

These data points were gathered from ChEMBL document CHEMBL1201862.
